Species: Rattus norvegicus
Experiment: Inhibition of rat recombinant geranylgeranyltransferase type I expressed in Escherichia coli assessed as residual enzyme activity for geranylgeranylation of K-Ras4B at 50 uM incubated for 30 mins in presence of [3H]GGPP by scintillation counting assay relative to control
The label is yes for Activity below 50% and no for Activity equal to or exceeding 50%.

Observe how each entry below is paired with its result.
- CCCS[C@@H]1C[C@@H](c2ccc(OC)cc2)N(S(=O)(=O)c2ccc(Cl)cc2)C[C@H]1C(=O)O: no
- CCOc1ccc([C@@H]2CC=C(C(=O)O)[C@H](c3ccc(F)cc3)N2S(=O)(=O)c2ccc(C)cc2)cc1: no
- COc1cccc([C@@H]2CC=C(C(C)=O)CN2S(=O)(=O)c2ccc(C)cc2)c1: no
- Cc1ccc(S(=O)(=O)N2[C@@H](c3ccc(F)cc3)C(C(=O)O)=CC[C@H]2c2cccs2)cc1: no
- C=CCS[C@H]1[C@@H](C(=O)O)[C@H](c2ccc(Cl)cc2)N(S(=O)(=O)c2ccc(C)cc2)[C@@H]1CC1CCCC1: yes
- C=CCS[C@H]1[C@@H](C(=O)O)[C@H](c2ccc(C#N)cc2)N(S(=O)(=O)c2ccc(C)cc2)[C@@H]1C(C)C: yes
- Cc1ccc(S(=O)(=O)N2[C@@H](c3ccc(Br)cc3)C(C(=O)O)=CC[C@H]2c2cccc(C)c2)cc1: no
- Cc1ccc([C@@H]2C[C@@H](SCc3ccc(C(C)(C)C)cc3)[C@H](C(=O)O)CN2S(=O)(=O)c2ccc(Cl)cc2)cc1: no

Lookup: For COc1ccc([C@@H]2C[C@@H](SCCC(C)C)[C@H](C(=O)O)CN2S(=O)(=O)c2ccc(Cl)cc2)cc1 , is the recorded Activity below the cut-off of 50%?
Found: no

Lookup: Dear colleague, could you confirm whether Activity of COc1cccc([C@@H]2CC=C(C(=O)O)[C@H](c3cccc(Cl)c3)N2S(=O)(=O)c2ccc(C)cc2)c1 falls below 50%? Thanks.
Found: no

Lookup: Please indicate whether the reported Activity of C=CCS[C@H]1[C@@H](C(=O)O)[C@H](c2ccc(Cl)cc2)N(S(=O)(=O)c2ccccc2C)[C@@H]1CCCCCC is strictly below 50%.
Found: yes

Lookup: I wonder whether Cc1ccc([C@@H]2CC=C(C(=O)O)[C@H](c3ccc(C(C)(C)C)cc3)N2S(=O)(=O)c2ccc(C)cc2)cc1 has Activity below 50%. Can you tell?
Found: no

Lookup: Please let me know if COc1ccc([C@@H]2C[C@@H](SCC(C)C)[C@H](C(=O)O)CN2S(=O)(=O)c2ccc(C)cc2)cc1 shows Activity below 50%.
Found: no

Lookup: Dear reviewer, please state whether Cc1ccc([C@H]2C(C(=O)O)=CC[C@@H](c3ccc(Cl)cc3)N2S(=O)(=O)c2ccc(Cl)cc2)cc1 has Activity strictly beneath 50%.
Found: no

Lookup: Criterion: Activity strictly below 50%. Is it met by Cc1ccc(S(=O)(=O)N2[C@@H](c3ccc(Cl)cc3)C(C(=O)O)=CC[C@H]2c2ccc(Cl)cc2)cc1 ?
Found: no

Lookup: Determine if CCCCS[C@@H]1C[C@@H](c2ccc(Cl)cc2)N(S(=O)(=O)c2ccccc2C)C[C@H]1C(=O)O shows Activity strictly lower than 50%.
Found: no

Lookup: Find out if reported Activity for CCCCCS[C@@H]1C[C@@H](c2ccc(OC)cc2)N(S(=O)(=O)c2ccc(C)cc2)C[C@H]1C(=O)O is less than 50%
Found: no

Lookup: Does this compound meet the criterion Activity < 50%? Cc1ccc(S(=O)(=O)N2[C@@H](c3ccc(F)cc3)C(C(=O)O)=CC[C@H]2c2ccccc2)cc1
Found: no

Lookup: Hello, is Activity of the following compound strictly smaller than 50%? CCc1ccc([C@@H]2CC=C(C(=O)O)[C@H](c3cccc(C)c3)N2S(=O)(=O)c2ccc(C)cc2)cc1
Found: no

Lookup: Is it true that Activity reported for CCCCCC[C@@H]1[C@@H](Sc2ccc(C)cc2)[C@@H](C(=O)O)[C@H](c2ccc(Cl)c(Cl)c2)N1S(=O)(=O)c1ccc(C)cc1 is less than 50%?
Found: yes

This collection of values is drawn from ChEMBL document CHEMBL4421722.
